test system: VchCAST RNA-guided transposition machinery (E. coli BL21(DE3) host, lacZ target); assay: relative integration efficiency (T-RL orientation) vs wild-type transposon end (log2 (normalized fold change)); transposon end mutated: right end (5 bp flank + 75 bp right end); higher = more efficient transposition
measuredEndpoint: relative integration efficiency (log2)
Answer field: number only, no words.

These solved cases illustrate the format of a correct answer.
- residues: "ACATTTGTTGATATAATTATCATTTTATGGTTGCAACCATAAAATGATAATTATCATAATTATCATTTTATGGTTGCTCTGATCATAGTCAGACCAACATTGCTACGACCCGTATTCGCACCGACAC"
  measuredNumber: -2.78
- residues: "ACATTTGTGGATCCAACCATAAAATGATAATTACACCCATAAATTCATCATTATCACACCCAATTTAACTATAACGCTCTGATCATAGTCAGACCAACATTGCTACGACCCGTATTCGCACCGACAC"
  measuredNumber: -2.28
- residues: "ACATTTGTTGATACAACCCTAAAATGATAATTACACCCATAAATTCATAATTATCACACCCAATTTAACTATAACGCTCTGATCATAGTCAGACCAACATTGCTACGACCCGTATTCGCACCGACAC"
  measuredNumber: -4.59
- residues: "ACATTTGTTGATACAACCATAAAATGATAATTAATAATTATTTATAATCACACCCATAAATTGATAATTATCAACAAACGCCCGGTCGCGGTACTCTGATCATAGTCAGACCAACATTGCTACGACC"
  measuredNumber: -2.09
- residues: "ACATTTGTTGATATAATTATCATTTTATGGTTGCAACCATAAAATGATAATTATCACAACCATAAAATGATAATTACTCTGATCATAGTCAGACCAACATTGCTACGACCCGTATTCGCACCGACAC"
  measuredNumber: -3.54
- residues: "ACATTTGTTGATATGCAACCATAAAATGATAATTACACCCATAAATTGATAATTATCACACCCATAAATTGATATTGCCTCTGATCATAGTCAGACCAACATTGCTACGACCCGTATTCGCACCGAC"
  measuredNumber: -6.54

**Query** Need relative integration efficiency (log2) of ACATTTGTTGATACAACCAGCCCATGATAATTACACCCATAAATTGATAATTATCACACCCATAAATTGATATTGCCTCTGATCATAGTCAGACCAACATTGCTACGACCCGTATTCGCACCGACAC , thanks.
**Result** -4.2

**Query** Field entry: ACATTTGTTGATACAACACGCAAATGATAATTACACCCATAAATTGATAATTATCACACCCATAAATTGATATTGCCTCTGATCATAGTCAGACCAACATTGCTACGACCCGTATTCGCACCGACAC
**Result** -4.37

**Query** Also ACATTTGTTGATACAACCATAAAATGATAATTTGACCCATAAATTGATAATTATCACACCCATAAATTGATATTGCCTCTGATCATAGTCAGACCAACATTGCTACGACCCGTATTCGCACCGACAC , if possible.
**Result** -0.692

**Query** Note, next up: ACATTTGTTGATACAACCATAAAATGATAATTAATAATTATTTATAATCAGCAACTTAACCACCCATAAATTGATAATTATCACACCCATAAATTGATATTGCCTCTGATCATAGTCAGACCAACAT
**Result** -3.17
